# measurementProtocol: qHTS Assay to Identify Small Molecule Activators of BRCA1 Expression; note: nearly all actives have a fitted effect of over 80% in size
# conditionContext: MCF7-BRCA1-FFLuc reporter, luminescence, 48 h; series mostly up to 46.1 µM
Screen size: about 380,000 compounds; about 4,000 (1.1%) were called active. About 3% were inconclusive and are not listed. Calls come from the whole dose curve; as a rule, active = well fitted activation curve with a large enough effect; inconclusive = small, poorly fitted or top-dose-only effect; inactive = no such curve, though single readings can be large or run the other way. The sample holds actives, similar compounds and a random draw of the others, so the mix is not that of the screen.
Entry note: the call must match one of yes for active, no for inactive

Example entries begin here.
# molecule, groupLabel
measured = [
    ("CCn1cc(C(=O)N2CCN(c3cc(C)ccc3C)CC2)c(=O)c2cc(S(=O)(=O)N(C)C3CCCCC3)ccc21", "no"),
    ("COc1ccc2c(c1)c(=O)c(S(=O)(=O)c1ccc(F)cc1)cn2CC(=O)Nc1ccc(C)cc1C", "no"),
    ("CC(NC(=S)Nc1ccc(OC(F)F)cc1)c1ccc(F)cc1 (stereo not given)", "no"),
    ("COc1ccc(CNc2nc(-c3ccc(Cl)cc3)cc(C(F)(F)F)n2)cc1", "no"),
]

Moving on to another molecule below.
What was the test verdict on `CC(C)CNC(=S)Nc1ccc(F)cc1` ?
yes
